Experiment: chemical genetic growth profiling, strain panel (AID 1159580);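 note: tested at 20 µM; growth read once vehicle control cultures reached saturation at 30 °C; 1 = growth at the plate median or of vehicle wells; lower values mean less growth of the strain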
Conditions: S. cerevisiae deletion strains, growth OD, locus YMR205C, strain PFK2, active compounds read low
Screen size: about 5,500 compounds; about 2,000 (36%) were called active. Another 18% or so got no clear call; they are omitted. Some of the results follow.
measurement label: normalized growth

In the examples that follow, each entry is paired with its recorded normalized growth.
compound	endpoint result
CC(C)=CCC/C(C)=C/CO	1.01 (inactive)
ClC1C(Cl)C(Cl)C(Cl)C(Cl)C1Cl (stereo not drawn)	0.665 (active)
CNC(=O)Oc1ccccc1OC(C)C	0.984 (inactive)
CC(=O)OC1CCC2(O)CC1(C)CCC1C2CC1(C)C (stereo not drawn)	1.04 (inactive)
CC(=O)O[C@@H]1C2CC[C@@H]3C1(C[C@@H](O)[C@@]1(O)[C@@H](C[C@H](O)C1(C)C)[C@]3(C)O)C[C@@]2(C)O (stereo partly drawn)	1.01 (inactive)
COc1ccc(CC(=O)c2ccc(O)cc2O)cc1	0.92 (inactive)
CCC1(C2=NCCN2)Cc2ccccc2O1 (stereo not drawn)	1 (inactive)
CN1CCC[C@H]1c1cccnc1	1.03 (inactive)

Entry under review: `CC(C)[C@@H]1CC[C@@H](C)CC1=O` . Reported normalized growth?
1 (inactive)

Field entry: O=C(c1ccccc1)c1ccc2n1CCC2C(=O)O (stereo not drawn)
1.01 (inactive)

Subsequent entry: `O=c1c(O)c(-c2ccccc2)oc2ccc3occc3c12`
0.611 (active)

What about `O=c1c(O)c(-c2ccccc2)oc2cc(O)ccc12` ?
0.639 (active)

Try this compound next: COc1cc2c(cc1OC)C(C)NCC2 (stereo not drawn)
0.989 (inactive)

Further, for `C/C(=C\CO)CC[C@H](C)CCC[C@H](C)CCCC(C)C` ?
1.08 (inactive)

Item: `COc1cc(O)ccc1C(C)=O`
1.04 (inactive)

What about `CCCCCCCCCCCCCCCC(=O)OC[C@H](NC(=O)C(Cl)Cl)[C@H](O)c1ccc([N+](=O)[O-])cc1` ?
1.04 (inactive)

###

Below is a list of entries, each paired with its recorded normalized growth value.
Test: chemical genetic growth profiling, strain panel (AID 1159580);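 note: tested at 20 µM; growth read once vehicle control cultures reached saturation at 30 °C; 1 = growth at the plate median or of vehicle wells; lower values mean less growth of the strain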
Conditions: S. cerevisiae deletion strains, growth OD, locus YNL153C, strain GIM3, active compounds read low
The campaign covered roughly 5,500 compounds. About 2,000 (36%) were called active. Roughly 18% stayed inconclusive and do not appear here. The list shows a part of the results.

compound	normalized growth
Oc1ccccc1O	1.03 (inactive)
O=c1c(O)c(-c2ccccc2)oc2cc(O)ccc12	0.577 (active)
O=C(Cc1ccc(Cl)c(Cl)c1)N1CCCCC1CN1CCCC1 (centres undefined)	1.09 (inactive)
CC(=O)OC[C@@]1(O)C[C@@]23CCC4c5ccoc5CC[C@]4(C)C2CC[C@@H]1C3 (some centres undefined)	0.992 (inactive)

GET /values?readout=normalized growth&item= `O=S(=O)(c1ccc(Cl)cc1)N1CCN(Cc2ccccc2)CC1`
1 (inactive)

Next compound: ClC1C(Cl)C(Cl)C(Cl)C(Cl)C1Cl (centres undefined)
0.969 (inactive)

What do we get for `Clc1cc(Cl)cc(Br)c1` ?
1.01 (inactive)

Lookup C[N+]1(C)C2CCC1CC(OC(=O)C(CO)c1ccccc1)C2 (centres undefined)
1.01 (inactive)

Now consider C=CC1CN2CCC1CC2C(OC(C)=O)c1ccnc2ccc(OC)cc12 (centres undefined) .
1.02 (inactive)

Also `COC(=O)[C@H](NC(=O)c1cc(-c2ccccc2)nc2ccccc12)c1ccccc1` , if possible.
1 (inactive)

Entry `O=[N+]([O-])c1cc(C(F)(F)F)ccc1Sc1ccc(Cl)cc1` please
1.02 (inactive)

What would you report for `O=C(Cc1ccccc1)NC1CCN(S(=O)(=O)c2ccc(Cl)cc2)CC1` ?
0.982 (inactive)

# repeat for `COc1ccc(CNC(=O)/C=C/c2ccc3[nH]cc(CCN(C)C)c3c2)cc1`
0.985 (inactive)

Field entry: `Cc1nc(C(F)(F)F)nc(Sc2n[nH]c(-c3cc(Cl)cc(Cl)c3)n2)c1C`
0.995 (inactive)

Next up: `c1cnc2c(c1)ccc1cccnc12`
0.103 (active)

Quick one: `N#Cc1cc(I)c(C#N)c(I)c1`
0.746 (active)

Can you check `COc1ccc(NS(=O)(=O)c2ccc(N)cc2)nn1` next?
1.04 (inactive)

Next record, please: `COc1cc(O)ccc1C(C)=O`
0.961 (inactive)

How about this compound: `CC(C)[C@@H]1CC[C@@H](C)C[C@H]1OC(=O)c1ccccc1`
1.02 (inactive)

Then what about the compound COc1cc2c(cc1OC)C(C)NCC2 (centres undefined) ?
1.02 (inactive)

Same thing, different compound: `CCCCC#Cc1ccc(C(=O)NNC(=O)Nc2cc(Cl)cc(Cl)c2)o1`
0.995 (inactive)

Same question, `COc1cccc(C2SCc3cc(C)c(C)cc3CS2)c1O` this time
0.988 (inactive)

What do you have for CC(=O)O[C@@H]1C2CC[C@@H]3C1(C[C@@H](O)[C@@]1(O)[C@@H](C[C@H](O)C1(C)C)[C@]3(C)O)C[C@@]2(C)O (some centres undefined) ?
0.994 (inactive)

Would you mind doing CCOC(=O)c1ccc(N2CC3CCCCN3C2c2ccc(Cl)c(Cl)c2)cc1 (centres undefined) as well?
0.997 (inactive)
